Where do the numbers come from? From patent US20200345725A1.

Here, each record is paired with measured pEC50 data.
Target or system: UniProt Q9BXC1
Experiment: Cellular redistribution assay (CRA) for GPR174
Type: cell-based
Recorded conditions: multiple values = separate experiments
Sequence (Q9BXC1 1-292 limits assumed): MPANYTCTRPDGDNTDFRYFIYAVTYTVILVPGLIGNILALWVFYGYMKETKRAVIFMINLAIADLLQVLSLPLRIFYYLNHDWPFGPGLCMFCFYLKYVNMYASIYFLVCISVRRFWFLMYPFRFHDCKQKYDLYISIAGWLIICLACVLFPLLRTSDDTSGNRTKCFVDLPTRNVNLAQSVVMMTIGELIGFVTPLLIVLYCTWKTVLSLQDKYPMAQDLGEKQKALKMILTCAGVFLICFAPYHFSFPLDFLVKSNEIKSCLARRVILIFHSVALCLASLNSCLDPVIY
pEC50: −log10 of the molar value.

Examples with their reported pEC50 follow.
1) CCOC(=O)N1CCN(c2cc(N3CCCCC3)c(F)cc2[N+](=O)[O-])CC1 = < 6.15
2) CC(=O)N1CCN(c2cc(N3CCC(C)CC3)c(F)cc2[N+](=O)[O-])CC1 = < 5.70

# input Entry O=[N+]([O-])c1cc(F)c(N2CCCCC2)cc1N1CCN(S(=O)(=O)c2ccccc2)CC1 : reported pEC50 = ?
# output < 5.96

# input Entry CCC(=O)N1CCN(c2cc(N3CCCCC3)c(F)cc2[N+](=O)[O-])CC1 : reported pEC50 = ?
# output < 5.70

# input Entry CCCC(=O)N1CCN(c2cc(N3CCCCC3)c(F)cc2[N+](=O)[O-])CC1 : reported pEC50 = ?
# output < 5.92

# input Entry CCOC(=O)N1CCN(c2cc(N3CCC(C)CC3)c(F)cc2[N+](=O)[O-])CC1 : reported pEC50 = ?
# output 5.68

###

Target or system: GPR174 (Homo sapiens)
Experiment: CRE-Luc reporter Gs signaling assay with GPR174
Format: cell-based
Set-up: host or cells: HEK293 or CHO cell lines (ATCC)
Recorded conditions: pCRE-Luc reporter
Sequence (Q9BXC1 whole entry): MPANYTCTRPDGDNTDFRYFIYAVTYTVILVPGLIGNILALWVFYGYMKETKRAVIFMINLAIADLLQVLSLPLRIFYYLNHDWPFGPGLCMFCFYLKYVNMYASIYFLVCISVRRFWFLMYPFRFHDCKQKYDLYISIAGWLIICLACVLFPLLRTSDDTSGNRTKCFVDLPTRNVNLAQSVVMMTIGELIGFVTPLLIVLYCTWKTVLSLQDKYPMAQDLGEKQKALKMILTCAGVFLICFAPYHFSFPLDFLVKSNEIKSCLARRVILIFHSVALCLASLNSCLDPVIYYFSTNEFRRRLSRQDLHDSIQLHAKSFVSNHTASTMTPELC
Here, each record is paired with measured Fold decrease in Gs signaling activity data.
The response must be a number in fold with no trailing unit.

# input Entry CC1CCN(c2cc(N3CCN(C(=O)c4cccs4)CC3)c([N+](=O)[O-])cc2F)CC1 [compound 12] : reported Fold decrease in Gs signaling activity = ?
# output 3.9

# input Entry CCOc1ccc(C2C3=C(CCCC3=O)NC3=C2C(=O)c2ccccc23)cc1 (stereo not drawn) [compound 23] : reported Fold decrease in Gs signaling activity = ?
# output 14.1

# input Entry Cc1nnc(-c2ccc(C3C4=C(CCCC4=O)NC4=C3C(=O)c3ccccc34)cc2)o1 (stereo not drawn) [compound 34] : reported Fold decrease in Gs signaling activity = ?
# output 8.4

# input Entry O=C1CCCC2=C1C(c1ccc(OC3CCCC3)cc1)C1=C(N2)c2ccccc2C1=O (stereo not drawn) [compound 45] : reported Fold decrease in Gs signaling activity = ?
# output 7.6

# input Entry CCc1ccc(C2C3=C(CCCC3=O)NC3=C2C(=O)c2ccccc23)cc1 (stereo not drawn) [compound 27] : reported Fold decrease in Gs signaling activity = ?
# output 6.2

###

Target or system: GPR174 (Homo sapiens)
Experiment: CRE-Luc reporter Gs signaling assay with GPR174
Type: cell-based
Parameters: host or cells: HEK293 or CHO cell lines (ATCC)
Recorded conditions: pCRE-Luc reporter; multiple values = separate experiments
Here, each record is paired with measured EC50 data.
The response must be a number in µM with no trailing unit.

1. Cc1ccc(S(=O)(=O)N2CCN(c3cc(N4CCCCC4)c(F)cc3[N+](=O)[O-])CC2)cc1 = 1.7
2. O=C1CCCC2=C1C(c1cccnc1)C1=C(N2)c2ccccc2C1=O (stereo not shown) = 5.4
3. CCOc1ccc(C2C3=C(CCCC3=O)NC3=C2C(=O)c2ccccc23)cn1 (stereo not shown) = 0.6

Let's switch to this compound now.
# input Entry C=CCOc1ccc(C2C3=C(CCCC3=O)NC3=C2C(=O)c2ccccc23)cc1 (stereo not shown) : reported EC50 = ?
# output 1.2
